These data points were gathered from the supplement of paper PMC10567573.

Below, each entry is listed alongside its reported protein stability index.
B1: FBXO34 (parent)
chain: PRYREDPCKQCKKKYVKGDVSLCR

Variants of: B1
Assay: protein stability index of a GFP-peptide fusion (GPS, HEK-293T) (PSI 1-6); higher = more stable;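 also: lentivirally expressed fusions sorted by FACS into six bins by GFP to DsRed ratio, PSI derived from sequencing read proportions per bin multiplied by bin number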
Conditions: c terminus: a fixed tail appended
# respond with the number and nothing more

Consider the following illustrative entries.
[[record]]
primary_sequence = "PRYREDPAKQCKKKYVKGDVSLCR [C8A]"
value_type = "protein stability index"
value_observed = 4.08

[[record]]
primary_sequence = "PRYREDPCKQCKKKRVKGDVSLCR [Y15R]"
value_type = "protein stability index"
value_observed = 3.31

[[record]]
primary_sequence = "PRYREDPCKQCKKKYVKGDVSLNR [C23N]"
value_type = "protein stability index"
value_observed = 2.53

[[record]]
primary_sequence = "PPYREDPCKQCKKKYVKGDVSLCR [R2P]"
value_type = "protein stability index"
value_observed = 2.75

[[record]]
primary_sequence = "PRYREDWCKQCKKKYVKGDVSLCR [P7W]"
value_type = "protein stability index"
value_observed = 3.07


(Q) Query (variant): PRYREDPCKQCKKKYVKKDVSLCR [G18K] ; field requested: protein stability index
(A) 2.69

(Q) Fill in the blank: the reported protein stability index of PRDREDPCKQCKKKYVKGDVSLCR [Y3D] is ____.
(A) 2.82

(Q) protein stability index lookup needed for PRYREDPCKQCKKKYVKGDVSLQR [C23Q] , thanks.
(A) 1.9

(Q) Tell me the measured protein stability index of PRYREDPCKQCKKSYVKGDVSLCR [K14S] , please.
(A) 2.45

(Q) Reported protein stability index, variant PRYREDPCKQCKKKYYKGDVSLCR [V16Y] : ____
(A) 2.65

(Q) Dear colleague, I am looking for the recorded protein stability index of the following variant: PRYREDPCKQCKKNYVKGDVSLCR [K14N]
(A) 2.54

(Q) Item under review: PRYREDPCKECKKKYVKGDVSLCR [Q10E] . Reported protein stability index?
(A) 2.87

(Q) protein stability index lookup needed for PRYREDPCKQSKKKYVKGDVSLCR [C11S] , thanks.
(A) 4.07

(Q) For the variant shown here, PRYREDPLKQCKKKYVKGDVSLCR [C8L] , give the reported protein stability index.
(A) 3.71

(Q) Record request: protein stability index value, item PRYREDPCLQCKKKYVKGDVSLCR [K9L]
(A) 2.42
